# EXPERIMENTAL PROTOCOL: Acute oral toxicity in rats
# Assay type: in vivo
# CONDITION CONTEXT: rat, in vivo, po, 4000 mg/kg, 4 g/kg oral, 10 M, 5 Days; read-out: Percentage Mortality
EXPERIMENTAL READOUT: mortality at 120 h (%)
API: value field is a number in %; no unit string.

Qu. Quick one: mortality at 120 h of "CC(=O)Nc1ccc(O)cc1" ?
Ans. 90

###

# EXPERIMENTAL PROTOCOL: Acute oral toxicity in rats
# Assay type: in vivo
# CONDITION CONTEXT: rat, in vivo, po, 4000 mg/kg, Percentage Mortality
Please go through the items and note down their mortality at 120 h.
API: value field is a number in %; no unit string.

Qu. Quick one: mortality at 120 h of CSCCC(NC(C)=O)C(=O)Oc1ccc(NC(C)=O)cc1 (racemic) [Compound A] ?
Ans. 0

Qu. Same question, CC(=O)Nc1ccc(O)cc1 [NAPA, N-acetyl-para-aminophenol] this time
Ans. 70
